# EXPERIMENTAL_PROTOCOL: in vitro
# CONDITION: human, liver microsomes
QUANTITY_MEASURED: half-life (min)
One number for each entry, in min.

half-life lookup needed for O=C(Nc1cc2cc[nH]c(=O)c2cc1Cl)C(NC1CC1)c1ccccc1 (configuration not stated) , thanks.
21

* * *

# EXPERIMENTAL_PROTOCOL: in vivo
# CONDITION: rat, plasma
QUANTITY_MEASURED: half-life (h)
Answers are plain numbers, in h.

Value lookup for half-life; key = O=C(Nc1cc2cc[nH]c(=O)c2cc1Cl)C(NC1CC1)c1ccccc1 (stereo unspecified)
2.7

* * *

For each entry below, report its solubility value.
# EXPERIMENTAL_PROTOCOL: Solubility at pH 7.4
# Format: physicochemical
# CONDITION: buffer
One number for each entry, in µg/mL.

Which value of solubility has been reported for CN(C)C(C(=O)Nc1cc2cc[nH]c(=O)c2cc1Cl)c1ccccc1 (centres undefined) in the records?
6

We now examine a further molecule.
Which solubility value is on record for O=C(Nc1cc2cc[nH]c(=O)c2cc1Cl)C(NC1CC1)c1ccccc1 (centres undefined) ?
16

* * *

# EXPERIMENTAL_PROTOCOL: in vivo
# CONDITION: rat
For each of the compounds below, state its AUC.
Answers are plain numbers, in ng·h/mL.

// returns reported AUC for input CN(C)C(C(=O)Nc1cc2cc[nH]c(=O)c2cc1Cl)c1ccccc1 (configuration not stated)
30

The record that follows has no AUC shown yet.
Recorded AUC for O=C(Nc1cc2cc[nH]c(=O)c2cc1Cl)C(NC1CC1)c1ccccc1 (configuration not stated) , please?
1290

* * *

# EXPERIMENTAL_PROTOCOL: in vivo
# CONDITION: rat, iv, 1 mg/kg
QUANTITY_MEASURED: clearance
Write the numeric value and follow it with the unit.

Which value of clearance has been reported for O=C(Nc1cc2cc[nH]c(=O)c2cc1Cl)C(NC1CC1)c1ccccc1 (stereo unspecified) in the records?
82 mL/min/kg

* * *

# EXPERIMENTAL_PROTOCOL: Oral bioavailability in rat at 10 mg/kg
# Type: ADME, organism-based
# CONDITION: in vivo
QUANTITY_MEASURED: bioavailability

Please report the recorded bioavailability for CN(C)C(C(=O)Nc1cc2cc[nH]c(=O)c2cc1Cl)c1ccccc1 (configuration not stated) .
2%

Field: next molecule
Look up bioavailability for this molecule: O=C(Nc1cc2cc[nH]c(=O)c2cc1Cl)C(NC1CC1)c1ccccc1 (configuration not stated)
64%

The reported numbers originate from ChEMBL document CHEMBL1155525.
